Values were extracted from the ASAP Discovery antiviral challenge data (2025).

settings: human; liver_microsomes
ASSAY METRIC: microsomal CLint

{"columns": ["COMPOUND", "ASSAY METRIC", "EXPERIMENTAL VALUE"],
 "data": [
  ["O=C(O)c1cc(Cl)ccc1NS(=O)(=O)c1ccc(-c2ccccc2Cl)cc1", "microsomal CLint", "343 µL/min/mg"],
  ["COc1ccc([C@H](Cc2nnn[nH]2)NC(=O)c2ncnc3[nH]ccc23)cc1 (single isomer, unassigned)", "microsomal CLint", "2 µL/min/mg"],
  ["CC(C)CNC(=O)c1cc(Cl)c(F)cc1NS(=O)(=O)c1ccc(Oc2ccccc2Cl)cc1", "microsomal CLint", "198 µL/min/mg"],
  ["O=C(Nc1ccc2c(c1)CNC2)c1cccc2[nH]c(C(F)(F)F)cc12", "microsomal CLint", "14.1 µL/min/mg"],
  ["CC(C)[C@H](Nc1ncnc2[nH]c(-c3cnn(CC(=O)N(C)C)c3)cc12)c1ccc2c(c1)S(=O)(=O)CCC2 (racemic)", "microsomal CLint", "106 µL/min/mg"],
  ["CC(C)(C)[C@H](Nc1ncnc2[nH]c(-c3cnn(CC(N)=O)c3)cc12)c1ccc2c(c1)OCCO2 (racemic)", "microsomal CLint", "133 µL/min/mg"],
  ["CC(C)[C@H](Nc1ncnc2[nH]cc(C(=O)NC3CC3)c12)c1ccc2c(c1)S(=O)(=O)CCC2 (racemic)", "microsomal CLint", "29 µL/min/mg"]
]}
